# Method description: Radioactive metabolites in plasma, urine and feces after single oral dose of [14C] compound (I) to rats
# Format: in vivo, Sprague-Dawley rat
# Settings: oral 15 mg/kg, pooled fecal extracts 0-168 hr
Property: Metabolites in Feces (0-168 hr), Rat, % Dose (%)
Numbers only, in %.

{"columns": ["Molecule", "Measured result"],
 "data": [
  ["Cc1nc(Nc2ncc(C(=O)Nc3c(C)cccc3Cl)s2)cc(N2CCN(CCO)CC2)n1 [Parent (I), reference compound]", 41.6],
  ["Cc1nc(Nc2ncc(C(=O)Nc3c(Cl)cccc3CO)s2)cc(N2CCN(CCO)CC2)n1", 3.1]
]}

Could you report Metabolites in Feces (0-168 hr), Rat, % Dose for every entry in the following list?
1. Cc1nc(Nc2ncc(C(=O)Nc3c(C)cc(O)cc3Cl)s2)cc(N2CCN(CCO)CC2)n1
2. Cc1nc(Nc2ncc(C(=O)Nc3c(C)cccc3Cl)s2)cc(N2CCN(CC(=O)O)CC2)n1
3. Cc1nc(Nc2ncc(C(=O)Nc3c(C)cccc3Cl)s2)cc(N2CCNCC2)n1

A.
7.6
13.2
1.9

* * *

# Method description: Radioactive metabolites in plasma, urine and feces after single oral dose of [14C] compound (I) to monkeys
# Assay type: in vivo, cynomolgus monkey
# Settings: oral 10 mg/kg, pooled urine 0-168 hr
Give measured Metabolites in Urine (0-168 hr), Monkey, % Rad for each item. Keep answers brief.
Numbers only, in %.

Record excerpt, results attached:
{"columns": ["Compound", "Unit tag", "Measured result"],
 "data": [
  ["Cc1nc(Nc2ncc(C(=O)Nc3c(Cl)cccc3CO)s2)cc(N2CCN(CCO)CC2)n1", "%", 1.9],
  ["Cc1nc(Nc2ncc(C(=O)Nc3c(C)cccc3Cl)s2)cc(N2CCN(CC(=O)O)CC2)n1", "%", 2.2],
  ["Cc1nc(Nc2ncc(C(=O)Nc3c(C)cccc3Cl)s2)cc(N2CC[N+]([O-])(CCO)CC2)n1", "%", 35.8]
]}

Could you report Metabolites in Urine (0-168 hr), Monkey, % Rad for every entry in the following list?
1. Cc1nc(Nc2ncc(C(=O)Nc3c(C)cccc3Cl)s2)cc(N2CCNCC2)n1
2. Cc1nc(Nc2ncc(C(=O)Nc3c(C)cc(O)cc3Cl)s2)cc(N2CCN(CCO)CC2)n1
3. Cc1nc(Nc2ncc(C(=O)Nc3c(C)cccc3Cl)s2)cc(N2CCN(CCO)CC2)n1 [Parent (I), reference compound]

A.
1. 1.7
2. 0.6
3. 21.2

* * *

# Method description: Radioactive metabolites in urine and bile after IV administration of [14C] compound (I) to bile-duct cannulated monkeys
# Type: in vivo, monkey
# Settings: IV infusion 2 mg/kg, bile 0-72 hr
Property: Metabolites in BDC-Monkeys (0-72 hr), Bile, % Dose (%)
Numbers only, in %.

Record excerpt, results attached:
{"columns": ["Compound", "Measured result"],
 "data": [
  ["Cc1nc(Nc2ncc(C(=O)Nc3c(C)cccc3Cl)s2)cc(N2CCNCC2)n1", 0.5],
  ["Cc1nc(Nc2ncc(C(=O)Nc3c(C)cc(O)cc3Cl)s2)cc(N2CCN(CCO)CC2)n1", 2.4],
  ["Cc1nc(Nc2ncc(C(=O)Nc3c(C)cccc3Cl)s2)cc(N2CCN(CC(=O)O)CC2)n1", 6.3],
  ["Cc1nc(Nc2ncc(C(=O)Nc3c(C)cccc3Cl)s2)cc(N2CCN(CCO)CC2)n1 [Parent (I), reference compound]", 3.2],
  ["Cc1nc(Nc2ncc(C(=O)Nc3c(C)cccc3Cl)s2)cc(N2CC[N+]([O-])(CCO)CC2)n1", 5.0]
]}

Turning now to a further record.
Q. Fill in the blank: the reported Metabolites in BDC-Monkeys (0-72 hr), Bile, % Dose of Cc1nc(Nc2ncc(C(=O)Nc3c(Cl)cccc3CO)s2)cc(N2CCN(CCO)CC2)n1 is ____.
A. 3.0

* * *

# Method description: Metabolite profile of [14C] compound (I) in monkey hepatocyte incubations
# Format: in vitro ADME, cynomolgus monkey
# Settings: (Ia) 20 μM, 3 h, 37° C., ~2 million cells/mL; relative distribution in radiochromatographic profile
Label rule met when % of Radioactivity in Hepatocytes, Monkey >= 4%; otherwise rule not met.

{"columns": ["Compound", "Class assignment"],
 "data": [
  ["Cc1nc(Nc2ncc(C(=O)Nc3c(C)cccc3Cl)s2)cc(N2CC[N+]([O-])(CCO)CC2)n1 [M5 (III)]", "rule not met"],
  ["Cc1nc(Nc2ncc(C(=O)Nc3c(C)cccc3Cl)s2)cc(N2CCN(CCO)CC2)n1 [Parent (I), reference compound]", "rule met"]
]}

Q. Kindly determine if % of Radioactivity in Hepatocytes, Monkey recorded for Cc1nc(Nc2ncc(C(=O)Nc3c(C)cccc3Cl)s2)cc(N2CCNCC2)n1 [M4 (II)] is above or exactly 4%.
A. rule not met

Q. Kindly determine if % of Radioactivity in Hepatocytes, Monkey recorded for Cc1nc(Nc2ncc(C(=O)Nc3c(C)cccc3Cl)s2)cc(N2CCN(CC(=O)O)CC2)n1 [M6 (IV)] is above or exactly 4%.
A. rule met

Q. Kindly determine if % of Radioactivity in Hepatocytes, Monkey recorded for Cc1nc(Nc2ncc(C(=O)Nc3c(C)cc(O)cc3Cl)s2)cc(N2CCN(CCO)CC2)n1 [M20 (V)] is above or exactly 4%.
A. rule met

Q. Kindly determine if % of Radioactivity in Hepatocytes, Monkey recorded for Cc1nc(Nc2ncc(C(=O)Nc3c(Cl)cccc3CO)s2)cc(N2CCN(CCO)CC2)n1 [M24 (VI)] is above or exactly 4%.
A. rule met

* * *

Give measured % of Radioactivity in Hepatocytes, Rat for each item. Keep answers brief.
# Method description: Metabolite profile of [14C] compound (I) in rat hepatocyte incubations
# Format: in vitro ADME, Sprague-Dawley rat
# Settings: (Ia) 20 μM, 3 h, 37° C., ~2 million cells/mL; relative distribution in radiochromatographic profile
Numbers only, in %.

Could you report % of Radioactivity in Hepatocytes, Rat for every entry in the following list?
1. Cc1nc(Nc2ncc(C(=O)Nc3c(C)cccc3Cl)s2)cc(N2CC[N+]([O-])(CCO)CC2)n1
2. Cc1nc(Nc2ncc(C(=O)Nc3c(C)cccc3Cl)s2)cc(N2CCN(CCO)CC2)n1 [Parent (I), reference compound]

A.
2.7
88.8

* * *

# Method description: Radioactive metabolites in plasma, urine and feces after single oral dose of [14C] compound (I) to monkeys
# Type: in vivo, cynomolgus monkey
# Settings: oral 10 mg/kg, pooled fecal extracts 0-168 hr
Threshold 10%: Metabolites in Feces (0-168 hr), Monkey, % Dose strictly smaller gives True, otherwise False.

Known results for molecules:
{"columns": ["Molecule", "Class assignment"],
 "data": [
  ["Cc1nc(Nc2ncc(C(=O)Nc3c(C)cc(O)cc3Cl)s2)cc(N2CCN(CCO)CC2)n1 [M20 (V)]", "False"],
  ["Cc1nc(Nc2ncc(C(=O)Nc3c(C)cccc3Cl)s2)cc(N2CCNCC2)n1 [M4 (II)]", "True"],
  ["Cc1nc(Nc2ncc(C(=O)Nc3c(C)cccc3Cl)s2)cc(N2CCN(CC(=O)O)CC2)n1 [M6 (IV)]", "False"]
]}

Q. I wonder whether Cc1nc(Nc2ncc(C(=O)Nc3c(Cl)cccc3CO)s2)cc(N2CCN(CCO)CC2)n1 [M24 (VI)] has Metabolites in Feces (0-168 hr), Monkey, % Dose below 10%. Can you tell?
A. True

Q. I wonder whether Cc1nc(Nc2ncc(C(=O)Nc3c(C)cccc3Cl)s2)cc(N2CCN(CCO)CC2)n1 [Parent (I), reference compound] has Metabolites in Feces (0-168 hr), Monkey, % Dose below 10%. Can you tell?
A. False

* * *

# Method description: Radioactive metabolites in plasma, urine and feces after single oral dose of [14C] compound (I) to rats
# Assay type: in vivo, Sprague-Dawley rat
# Settings: oral 15 mg/kg, pooled fecal extracts 0-168 hr
Give measured Metabolites in Feces (0-168 hr), Rat, % Rad (% of total radioactivity in sample) for each item. Keep answers brief.
One number for each entry, in %.

Record excerpt, results attached:
{"columns": ["Compound", "Unit tag", "Measured result"],
 "data": [
  ["Cc1nc(Nc2ncc(C(=O)Nc3c(C)cc(O)cc3Cl)s2)cc(N2CCN(CCO)CC2)n1", "%", 9.9],
  ["Cc1nc(Nc2ncc(C(=O)Nc3c(C)cccc3Cl)s2)cc(N2CCN(CCO)CC2)n1 [Parent (I), reference compound]", "%", 54.5],
  ["Cc1nc(Nc2ncc(C(=O)Nc3c(C)cccc3Cl)s2)cc(N2CCN(CC(=O)O)CC2)n1", "%", 17.3]
]}

Could you report Metabolites in Feces (0-168 hr), Rat, % Rad (% of total radioactivity in sample) for every entry in the following list?
1. Cc1nc(Nc2ncc(C(=O)Nc3c(Cl)cccc3CO)s2)cc(N2CCN(CCO)CC2)n1
2. Cc1nc(Nc2ncc(C(=O)Nc3c(C)cccc3Cl)s2)cc(N2CCNCC2)n1

A.
[4.0, 2.5]
